Data provenance is patent US20230303681A1.

This section presents binders with their documented MFI values.
Biological target: T1, human TMEM106B (human, UniProt Q9NUM4 2-274)
T1 construct: Full-length, on transiently transfected HEK293 cells, or natively expressed on HeLa, U251 and A549 cells; also called huTMEM106B; huTMEM
Assay: FACS A549, 1 ug/ml
Please reply with the value in numeric form only.

Example results:
anti-TMEM106B antibody TM-5 (antibody, V domains shown) VH: QVQLQQSGTELARPGASVKVSCKASGYIFTTYGITWVKQRGGQGLEWIGEIYPRSDNTYYNEKFKDKATLTADKSSSTAYMELRSLTSEDSAVYFCARSKGSGTGDYWGQGTTVTVSS VL: DIQMTQSPASLSASVGETVTITCRASENIYIYLAWYQQKQGKTPQLLVYNGKMLAENVPSRFSGSGSGTQFSLKINSLQPEDFGSYYCQHHYGSPPAFGAGTKLELK: 1970
anti-TMEM106B antibody TM-50 (antibody, V domains shown, mouse IgG from hybridoma) VH: QVQLKESGPVLVAPSQSLSITCTVSGFSLTNYGVHWVRQPPGKGLEWLGVIWAGGNTNYNSALMSRLSISKDNSKSQVFLKMNSLQTDDTAMYYCAKEAKLLRSYAMDYWGQGTLVTVSA VL: DVQMTQTTSSLSASLGDRVTISCRASQDINNYLYWYQQKPDGTVKLLIYYTSMLHSGVPSRFSGSGSGTDYSLTISNLEQEDIATYFCQQGSTLMYTFGGGTKLEIK: 381
anti-TMEM106B antibody TM-32 (antibody, V domains shown) VH: EVQLQQSGAELVRPGASVRLSCIASGFNIKDYYMYWVKQRPEQGLEWIGRIDPEDGDTEYVPKFQGKATMTADTSSNTAYLQLSSLTSEDIGVYYCTTRTWDLYYAVDNWGQGTSVTVSS VL: DVLMTQTPLSLPVSLGDQASISCRSSQNIVHSNGNTYLEWYLQKPGQSPKLLIDKVSNRFSGVPDRFSGSGSGTDFTLKISRVEAEDLGIYYCFQGSHVPFTFGSGTKLEIK: 3930
anti-TMEM106B antibody TM-15 (antibody, V domains shown, mouse IgG from hybridoma) VH: QVQLQQPGAEFVRPGASVKLSCKASGYTFTNYWITWVKQRPGHGLEWIGDIYPGSGNSNYNESFKRKATLTVDTSSSTAYMHLSSQTSEDSAVYFCARKAYGGFPYWGQGTLVTVSA VL: DIQMTQSPASLSVSVGETVTITCRVSENIYNNLAWYQQKQEKSPQLLVFAATNLADGVPSRFSGSGSGTQFSLKINSLQSEDFGTYYCQHFWDTPFTFGSGTKLEIK: 650
anti-TMEM106B antibody TM-31 (antibody, V domains shown, mouse IgG from hybridoma) VH: QVQLQQSGAELAKPGASVKVSCKASGYTFISYWMNWVKQRPGQGLEWIGYINPTSGYTRYNQKFKDKATLTADKSSSTAYMQLSSLTYEDSAVYYCARSPPTVVLIGYFDYWGQGTTLTVSS VL: DIKMTQSPSSMYASLGERVTFTCKASQDINSYLSWFQQKPGKSPKTLIYRGNGLVDGVPSRFSGSGSGQDYSLTISSLEYEDMGIYYCLQYDEFPFTFASGTKLEIK: 403

Q) Entry under review: anti-TMEM106B antibody TM-2 (antibody, V domains shown) VH: HIQLVQSGPELKKPGETVKISCKASGYTFTEYPMHWVKQAPGKGFRWMGMIYTNTGEPTYAAEFKGRFAFSLETSASTGYLQINNLKNEDSATYFCVTAGYWGQGTLVTVSA VL: QIVLTQSPAILSASPGEKVTMTCRASSSVSYIHWFLQKPGSSPKPWIYATSNLASGVPFRFIGSGSGTSYSLTISGVEAEDSATYYCQQWSSNPSTFGAGTKLELK . Reported MFI?
A) 1090

Q) Try this binder too: anti-TMEM106B antibody TM-39 (antibody, V domains shown) VH: HVQRQQSGTELAKPGASVKLSCKTSGYTFTDYWMHWIKQRPGQGLEWIGFINPSSGYTKYNQNFKDKATLTADKSSSTAYMQLSSLTYEDSAVFYCAREAGSISDWYFDVWGTGTTVTVSS VL: DIVMTQAAPSIPVTPGESVSISCRSSKTLLNSNGNTYLYWFLQRPGQPPQLLIYRMSNLASGVPDRFSGSGSGTAFTLRISRVEAEDVGVYYCMQHLDYPYTFGGGTQLEIK
A) 3610

Q) Try this binder too: anti-TMEM106B antibody TM-29 (antibody, V domains shown) VH: QVQLRQSGAELVRPGASVKLSCKASGYTFTDYYINWVKQRPGQGLEWIARIYPGSGYTYYNEKFKGKATLTAEGSSNTAYMQLSSLTSEDSAVYFCANHYTNPFAYWGQGTLVTVSA VL: DIVMTQAAFSNPVTLGTSASISCRSSKSLLHYNGITYLYWYLQKPGQSPQLLIYQMSNLASGVPDRFSSSGSGTDFTLRISRVEAEDVGVYYCAQNLELPYTFGGGTKLEIK
A) 2480

Q) Try this binder too: anti-TMEM106B antibody TM-26 (antibody, V domains shown) VH: QVQLQQSGAELIRPGTSVKVSCKASGYAFTNYLIEWVKKRPGQGLEWIGVINPGSGITNYNEKFKGKATLTADKSSSTAYMQLSSLTSEDSAVYFCARSDFITTVVADYWGQGTTVTVSS VL: DIVVTQTPLSLPVSFGDQVSISCRSSQSLTNYYGNTYLSWYLHKPGQSPQLLIYGISNRFSGVPDRFSGSGSGTDFTLKISTIKPEDLGMYYCLQGTHQPRTFGGGTKLEIK
A) 380

Q) Try this binder too: anti-TMEM106B antibody TM-13 (antibody, V domains shown) VH: QVQLQQSGAELVKPGASVKMSCKASGYTFTTFPIEWMKQSHGKGLEWIGNFHPYNDDTKYNEKFKGKATLTVDKSSSTVYLDLSRLTSDDSAVYYCARYFYGGMDYWGQGTSVTVSS VL: DIQMTQSPASLSVSVGETVTITCRASENIYSSLGWYQQKQGESPQLLVFAATNLADGVPSRFSGSGSGTQYSLKINSLQSEDFGTYYCQHLWSIPWTFGGGTRLEIK
A) 1950
